Some compounds, each annotated with its measured half-life.
# RUN DESCRIPTION: Half-life of model acyl hydrazones in a simulated lysosomal environment (pH 4.5)
# Assay type: physicochemical
# CONDITION CONTEXT: read-out: Acidic (pH 4.5) Half life
Please answer using the number first and the unit second.

These solved cases illustrate the format of a correct answer.
Exam item: Can you share its half-life? I mean this compound: CC(=O)N/N=C1\CCc2cccc(O)c21 [L]
Marked response: 185 min

Exam item: Param item: C/C(=N\NC(=O)CC(C)(C)S)c1ccc(OCCCC(=O)O)cc1 [Compound Ia]
Marked response: 15 min

Exam item: Param item: CC(C)(S)CC(=O)NN=C1CCCc2cc(OCCCC(=O)O)cc(O)c21 [Compound Ib]
Marked response: 234 min

Exam item: Param item: CC(C)(S)CC(=O)N/N=C1\CCCc2cc(OCCCC(=O)O)ccc21 [Compound Ie]
Marked response: 31 min

Exam item: Param item: COc1ccc(/C(C)=N/NC(C)=O)cc1 [D]
Marked response: 15 min

***
Exam item: Can you share its half-life? I mean this compound: CC(=O)N/N=C1\CCCc2ccc(F)cc21 [K]
Marked response: 88 min

Exam item: Param item: COc1cc(O)cc2c1/C(=N/NC(C)=O)CCC2 [G]
Marked response: 2 min
